Assay: qHTS for Inhibitors of human tyrosyl-DNA phosphodiesterase 1 (TDP1): qHTS in cells in absence of CPT; note: nearly all actives have a fitted effect of over 55% in size
Conditions: DT40 Tdp1-/- hTDP1 cells, no CPT, ATP luminescence, 48 h
Screen size: about 420,000 compounds; about 64,000 (15%) were called active. Inconclusive results (about 27%) are left out. Calls come from the whole dose curve; as a rule, active = well fitted inhibition curve with a large enough effect; inconclusive = small, poorly fitted or top-dose-only effect; inactive = flat fitted curve, though single readings scatter. The list is a sample of the results.
Returns: one label drawn from t for active, f for inactive

Req: # outcome recorded in this test, key = COC(=O)C1=C(C)OC(N)=C(C#N)C1c1cc(OC)ccc1OC (stereo not drawn)
Resp: f

Req: Tell me the recorded outcome of this test for CC(=O)NNc1cc(=O)c2c(=O)n(C)c(=O)n(C)c2[nH]1 .
Resp: f

Req: Check the results log: what was the call for O=C(Nc1nnc(Cc2ccc(Cl)cc2)s1)c1ccncc1 ?
Resp: f

Req: Per the records of this test, what outcome belongs to NS(=O)(=O)c1cccnc1Nc1cccc(Cl)c1 ?
Resp: f

Req: Which outcome was assigned to CNN/C(N=Cc1ccc([N+](=O)[O-])s1)=N\S(=O)(=O)c1cc(C)c(Cl)cc1SCc1ccccc1 in this test?
Resp: t

Req: What classification did Nc1ncc(S(=O)(=O)Nc2ccc(OC(F)(F)F)cc2)cn1 end up with in this test?
Resp: f

Req: Assay outcome for C=CCOC(=O)c1ccccc1C(=O)OCC=C : what was it?
Resp: f

Req: Could you kindly confirm the outcome this assay logged for OCCCNc1nccc(-c2cc(Nc3cccc(Cl)c3)ncn2)n1 ?
Resp: t

Req: Each compound tested received a call. Report the one for CCCCNC(=O)c1onc(CSc2cccc(OC)c2)c1C(=O)O .
Resp: f

Req: What call does the record list for CC(C)C(NC(=O)c1c(F)cccc1F)C(=O)NCc1ccncc1 (stereo not drawn) ?
Resp: f

Others:
Req: Could you please tell me the result logged for COc1ccc(Sc2nc(-c3ccccc3)ncc2OC)cc1 in this assay?
Resp: f

Req: Dear all, I need the recorded test outcome for CC(NCC(=O)Nc1ccccc1C(=O)NC1CC1)c1ccccc1Cl (stereo not drawn) , thank you.
Resp: f

Recorded values, source PubChem BioAssay AID686978.
